# study.system: PDGFR-β (Homo sapiens (Human), UniProt P09619)
# Sequence (P09619 33-1106): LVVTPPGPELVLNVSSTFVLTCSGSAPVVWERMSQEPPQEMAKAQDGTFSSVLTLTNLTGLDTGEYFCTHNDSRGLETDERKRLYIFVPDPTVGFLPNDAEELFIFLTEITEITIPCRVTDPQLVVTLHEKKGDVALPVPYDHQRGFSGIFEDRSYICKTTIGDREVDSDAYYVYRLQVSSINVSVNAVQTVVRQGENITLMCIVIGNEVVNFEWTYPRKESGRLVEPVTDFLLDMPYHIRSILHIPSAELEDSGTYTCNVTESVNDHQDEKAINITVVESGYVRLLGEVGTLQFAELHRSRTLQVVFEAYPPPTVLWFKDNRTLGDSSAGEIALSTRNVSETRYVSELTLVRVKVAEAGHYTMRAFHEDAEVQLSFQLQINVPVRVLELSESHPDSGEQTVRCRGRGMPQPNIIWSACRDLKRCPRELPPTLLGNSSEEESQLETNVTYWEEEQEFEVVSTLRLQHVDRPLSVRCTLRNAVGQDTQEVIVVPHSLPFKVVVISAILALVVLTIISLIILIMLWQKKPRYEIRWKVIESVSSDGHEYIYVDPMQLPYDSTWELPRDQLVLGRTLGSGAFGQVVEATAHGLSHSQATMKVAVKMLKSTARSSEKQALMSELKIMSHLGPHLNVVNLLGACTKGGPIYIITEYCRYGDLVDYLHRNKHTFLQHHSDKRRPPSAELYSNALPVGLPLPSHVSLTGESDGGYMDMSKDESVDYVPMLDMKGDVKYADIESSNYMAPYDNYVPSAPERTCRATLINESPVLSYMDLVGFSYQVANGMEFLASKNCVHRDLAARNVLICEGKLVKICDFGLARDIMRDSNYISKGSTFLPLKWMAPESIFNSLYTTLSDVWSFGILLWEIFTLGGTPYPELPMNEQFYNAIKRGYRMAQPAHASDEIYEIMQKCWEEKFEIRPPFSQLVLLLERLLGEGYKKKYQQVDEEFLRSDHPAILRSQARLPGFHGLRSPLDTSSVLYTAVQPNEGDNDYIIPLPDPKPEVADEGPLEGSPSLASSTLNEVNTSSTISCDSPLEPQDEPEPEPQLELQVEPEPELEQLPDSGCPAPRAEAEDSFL
# assay.explanation: PDGFR-β tyrosine kinase inhibitory action (HTRF KinEASE-TK)
# Format: biochemical
# condition.context: PDGFR-β enzyme 1 ng/μL, 30° C. for 30 minutes; read-out: PDGF-β IC50
Below, each entry is listed with its recorded pIC50.
Scale: negative log10 of molar concentration, which is what pIC50 denotes.

Sample records with pIC50:
compound | pIC50
O=C(N[C@H]1CCCC[C@@H]1O)c1ccc(F)c(/C=C(\F)c2cncc(N3CCOCC3)c2)c1 | 7.29
CNc1ncc2c(Nc3cc(C(=O)N[C@H]4CCCC[C@@H]4O)ccc3C)cccc2n1 | 7.57
Cc1ccc(C(=O)N[C@H]2CCCC[C@@H]2O)cc1NCc1ccc(NC(=O)C2CCOCC2)nc1 | 7.39
Cc1ccc(C(=O)N[C@H]2CCCC[C@@H]2O)cc1NC(=O)c1cnc(NC(C)(C)C)s1 | 7.10
O=C(Nc1cccc(CNc2cncc(-c3ncccn3)c2)c1)N[C@@H]1CCCC[C@@H]1O | 7.59
Cc1ncc(C(=O)N[C@H]2CCCC[C@@H]2O)cc1/C=C(\F)c1cncc(-c2ccccn2)c1 | 7.80
Cc1ccc(C(=O)N[C@H]2CCCC[C@@H]2O)cc1COc1cncc(-c2cccnc2)c1 | 6.46
Cc1ccc(C(=O)N[C@H]2CCCC[C@@H]2O)cc1NCc1cncc(-c2ccc(C(C)(C)N)cc2)c1 | 6.85
Cc1ccc(C(=O)N[C@H]2CCCC[C@@H]2O)cc1N[C@@H](C)c1cncc(-c2ccccn2)c1 | 7.11
Cc1ccc(C(=O)N[C@@H]2CCCC[C@H]2O)cc1CNc1cncc(-c2ncccn2)c1 | 6.66

Ask | What value of pIC50 has been recorded for this entry: O=C(N[C@H]1CCCC[C@@H]1O)c1ccc(Cl)c(NC(=O)c2cnc(CC3CC3)s2)c1
Reply | 7.08

Ask | Next record, please: Cc1ccc(C(=O)N[C@H]2CCCC[C@@H]2O)cc1NC(=O)c1cncc(-c2ccc(C(F)(F)F)cc2F)c1
Reply | 6.89

Ask | Next record, please: Cc1ccc(C(=O)N[C@H]2CCCC[C@@H]2O)cc1NCc1cnn(-c2ccccn2)c1
Reply | 7.41

Ask | Next record, please: Cc1ccc(C(=O)N[C@H]2CCCC[C@@H]2O)cc1NC(=O)c1cncc(-c2ccc(F)cc2)c1
Reply | 7.89

Ask | Next record, please: Cc1ncc(C(=O)N[C@H]2CCCC[C@@H]2O)cc1CNc1cncc(C#CC2CC2)c1
Reply | 6.74

Ask | Next record, please: Cc1c(F)cc(C(=O)N[C@H]2CCCC[C@@H]2O)cc1NC(=O)c1cnc(CC2CC2)s1
Reply | 6.92

* * *

# study.system: TEL-KIT fusion gene transfected cells (Ba/F3)
# Sequence (P10721 26-976 limits assumed, change not shown): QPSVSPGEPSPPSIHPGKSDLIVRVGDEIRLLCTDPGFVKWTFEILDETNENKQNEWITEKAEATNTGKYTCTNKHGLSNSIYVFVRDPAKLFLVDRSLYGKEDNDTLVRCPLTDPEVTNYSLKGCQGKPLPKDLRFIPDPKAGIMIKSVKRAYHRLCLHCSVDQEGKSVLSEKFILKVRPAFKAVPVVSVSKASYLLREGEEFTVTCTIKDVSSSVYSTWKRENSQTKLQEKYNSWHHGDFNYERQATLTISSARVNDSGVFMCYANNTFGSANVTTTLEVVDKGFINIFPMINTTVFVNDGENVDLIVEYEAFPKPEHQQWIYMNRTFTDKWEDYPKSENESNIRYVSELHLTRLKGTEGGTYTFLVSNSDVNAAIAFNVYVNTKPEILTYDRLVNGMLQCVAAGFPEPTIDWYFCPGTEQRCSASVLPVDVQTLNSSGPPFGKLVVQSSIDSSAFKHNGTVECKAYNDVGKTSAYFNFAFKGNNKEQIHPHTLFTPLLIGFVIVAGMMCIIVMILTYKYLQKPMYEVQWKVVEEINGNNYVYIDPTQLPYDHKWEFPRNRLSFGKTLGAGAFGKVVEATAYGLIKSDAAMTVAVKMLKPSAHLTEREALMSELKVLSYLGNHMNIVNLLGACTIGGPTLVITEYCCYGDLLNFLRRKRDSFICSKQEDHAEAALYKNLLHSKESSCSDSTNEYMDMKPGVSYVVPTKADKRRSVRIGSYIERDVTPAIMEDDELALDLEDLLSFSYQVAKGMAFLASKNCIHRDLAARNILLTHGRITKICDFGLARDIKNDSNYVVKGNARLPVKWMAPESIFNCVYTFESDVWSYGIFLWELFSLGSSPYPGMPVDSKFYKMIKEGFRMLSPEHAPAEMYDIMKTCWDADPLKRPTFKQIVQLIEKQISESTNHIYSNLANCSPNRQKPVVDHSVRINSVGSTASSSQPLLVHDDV
# assay.explanation: Suppression of proliferation of TEL-KIT fusion gene transfected Ba/F3 cells;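 note: viable cells quantified via formazan from tetrazolium reduction, inhibition scaled with 0.1% DMSO control as 0% and medium-only blank as 100%, IC50 from two-parameter logistic fit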
# condition.context: read-out: KIT/BaF3 proliferation inhibition (IC50); TEL-KIT expressing Ba/F3 cells, 72 hours, final concentration 0.1 to 10,000 nM
parameter.measured: IC50 (nM)
Express the result in nM but write the number alone.

compound | study.system | IC50 (nM)
Cc1ccc(C(=O)N[C@H]2CCCC[C@@H]2O)cc1COc1cncc(-c2cccnc2)c1 | TEL-KIT fusion gene transfected cells (Ba/F3) | 4100
Cc1ccc(C(=O)N[C@H]2CCCC[C@@H]2O)cc1NC(=O)c1cnc(NC2(C)CC2)s1 | TEL-KIT fusion gene transfected cells (Ba/F3) | 1000
Cc1ccc(C(=O)N[C@H]2CCCC[C@@H]2O)cc1NC(=O)c1cncc(-c2cc(F)cc(F)c2)c1 | TEL-KIT fusion gene transfected cells (Ba/F3) | 920
O=C(N[C@H]1CCCC[C@@H]1O)c1ccc(Cl)c(NCc2cncc(-c3ncccn3)c2)c1 | TEL-KIT fusion gene transfected cells (Ba/F3) | 3400
Cc1ccc(C(=O)N[C@H]2CCCC[C@@H]2O)cc1NC(=O)c1cncc(-c2cccc(F)c2)c1 | TEL-KIT fusion gene transfected cells (Ba/F3) | 900

Next item in the queue.
Ask | What value of IC50 has been recorded for this entry: Cc1ccc(C(=O)N[C@H]2CCCC[C@@H]2O)cc1NC(=O)c1cncc(-c2cccc(OC(F)(F)F)c2)c1
Reply | 540
